measured.parameter: melting point

Kindly indicate its recorded melting point. Item: "Clc1ccc(Sc2cc(NCCN3CCOCC3)nc(-c3ccc(Cl)cc3)n2)cc1"
159 to 161 °C

Kindly indicate its recorded melting point. Item: "O=C(O)c1cccc(Oc2cccc(-c3nnc(N(Cc4ccc(C(F)(F)P(=O)(O)O)c(Cl)c4)c4ccc(Cl)c(Cl)c4)s3)c2)c1"
178 to 180 °C

Kindly indicate its recorded melting point. Item: "CCSC(=NC(C)=O)Nc1c(Cl)cccc1Cl"
97 to 100 °C

Kindly indicate its recorded melting point. Item: "CC(=O)c1ccc(CCNS(=O)(=O)c2ccc(F)cc2)cc1"
106 to 107 °C

Kindly indicate its recorded melting point. Item: CCOP(C)(=O)COS(=O)(=O)c1ccccc1C(F)(F)F (centres undefined)
91 to 92.5 °C

Kindly indicate its recorded melting point. Item: "Fc1cccc(F)c1-c1nc(COc2ccc(Oc3ccc(C(F)(F)F)cc3)cc2)no1"
83 to 84 °C

Kindly indicate its recorded melting point. Item: "Cc1ccc(-n2ncc(C(=O)O)c2C(N)=O)cc1C"
231 to 232 °C

Kindly indicate its recorded melting point. Item: "c1coc(CNc2nccc3ccccc23)c1"
76 to 77 °C

Kindly indicate its recorded melting point. Item: "Cc1cc(C=CC#N)cc(C(=O)c2[nH]c(=O)[nH]c(=O)c2C(C)C)c1"
233 to 235 °C

Kindly indicate its recorded melting point. Item: "CC(C)CNC(=O)CN=Cc1ccccc1F"
154 °C

Kindly indicate its recorded melting point. Item: "COC(=O)NNC(=O)Cl"
55 to 58 °C

Kindly indicate its recorded melting point. Item: Cc1cc(OCc2coc(/C=C/c3ccc(Cl)cc3)n2)ccc1CS(=O)CCc1ccnn1C (centres undefined)
169 to 171 °C

Kindly indicate its recorded melting point. Item: "CSc1c(C=NO)c(=O)n(C)c(=O)n1C"
165 °C

Kindly indicate its recorded melting point. Item: "O=C(Nc1ccc2ccc(Cl)nc2n1)c1cccs1"
244 °C

Kindly indicate its recorded melting point. Item: "CCCCCCCCCCCCCCCCN(c1ccccc1)S(=O)(=O)c1ccc(Nc2cc(=O)n(-c3c(C)cc(Cl)cc3Cl)n2C(=O)OCC)cc1"
85 °C

Kindly indicate its recorded melting point. Item: "CN1CCC2(CC1)OCc1ccccc12"
76 to 77 °C

Kindly indicate its recorded melting point. Item: "Clc1ccc(-c2cc(C3CCN(Cc4ccc5ccccc5c4)CC3)n[nH]2)cc1"
180 to 181 °C

Kindly indicate its recorded melting point. Item: CCC(C(=O)c1ccc(Cl)cc1)n1ncn(-c2ccc(N3CCN(c4cc(C)cc(C)n4)CC3)nc2)c1=O (centres undefined)
113 °C

Kindly indicate its recorded melting point. Item: "Cn1c(C(F)(F)F)cc(=O)n(-c2ccc3snc(COCC(=O)NS(C)(=O)=O)c3c2)c1=O"
> 240 °C

Kindly indicate its recorded melting point. Item: "NNC1=Nc2sc(Cl)cc2C(c2ccccc2)=NC1"
204 to 207 °C

Kindly indicate its recorded melting point. Item: "O=Cc1ccc(OCC(F)(F)F)c([N+](=O)[O-])c1"
126 to 127 °C

Kindly indicate its recorded melting point. Item: "COc1cc(C(C)=O)ccc1OC/C=C\CCl"
64 to 66 °C

Kindly indicate its recorded melting point. Item: "Nc1ccccc1Oc1ccccc1C(=O)O"
150 to 151 °C

Kindly indicate its recorded melting point. Item: "CS(=O)(=O)c1ccc(/C(=C\C2CCCCCC2)C(=O)Nc2nccs2)cc1"
163 to 165 °C

Kindly indicate its recorded melting point. Item: "COc1cc2ncn(CCCCl)c(=O)c2cc1OC"
143 °C

Kindly indicate its recorded melting point. Item: "Cc1c(-c2ccccc2)oc2c(C#N)cccc12"
86 to 87 °C

Kindly indicate its recorded melting point. Item: "Nc1cccc(C2(O)CCOCC2)c1"
154 to 155 °C

Kindly indicate its recorded melting point. Item: "O=c1c(Br)c(OCc2ccc(F)c(F)c2)ccn1Cc1cccc(F)c1"
172 to 174 °C

Kindly indicate its recorded melting point. Item: "O=c1cc(-c2ccccc2F)oc(N2CCOCC2)c1"
137 to 138 °C

Kindly indicate its recorded melting point. Item: "CC(C)c1c(Sc2ccc(O)cc2)n(C)c2ccccc12"
89 to 90 °C

Kindly indicate its recorded melting point. Item: O=C(c1ccccc1)C(OCc1ccc(Cl)cc1Cl)n1ccnc1 (centres undefined)
109 to 111 °C

Kindly indicate its recorded melting point. Item: "CC(=O)OCc1ccc(N(c2ccccc2)c2ccc(C=CC=O)cc2)cc1"
112 to 115 °C

Kindly indicate its recorded melting point. Item: Cc1ccc2c(c1)c(=O)c(S(C)=O)nn2C (centres undefined)
173 to 175 °C

Kindly indicate its recorded melting point. Item: "CCCCc1nn(-c2ccccc2C(F)(F)F)c(=O)n1Cc1ccc(-c2cc(CCC)ccc2S(=O)(=O)NC(=O)c2ccccc2Cl)cc1F"
79 to 82 °C

* * *

measured.parameter: melting point

Kindly indicate its recorded melting point. Item: "O=C1c2ccccc2C(=O)N1OC/C=C/Cc1ccccc1"
70 to 71 °C

Kindly indicate its recorded melting point. Item: "CC(C)Nc1ncnc2c1ncn2Cc1c(Cl)cccc1Cl"
109 to 110 °C

Kindly indicate its recorded melting point. Item: "O=c1c(-c2ccccc2)cc(C2=NCCO2)c2n1CCc1ccsc1-2"
211 to 212 °C

Kindly indicate its recorded melting point. Item: CCN(CC)C(=O)Nc1ccc(S(=O)(=O)N2C(=O)C(N)(c3ccccc3Cl)c3cc(Cl)ccc32)cc1 (centres undefined)
195 to 196 °C

Kindly indicate its recorded melting point. Item: "S=C(NCCCN1CCN(Cc2ccc(Cl)cc2)CC1)NC1CCCCC1"
127 to 128 °C

Kindly indicate its recorded melting point. Item: "COc1ccc(/C=C/C(=O)CC(=O)/C=C/c2ccc(O)cc2)cc1O"
207 to 210 °C

Kindly indicate its recorded melting point. Item: "CN1CCCC1=NC(=O)Nc1ccc(Cl)c(C(F)(F)F)c1"
175 °C

Kindly indicate its recorded melting point. Item: "CCS(=O)(=O)Nc1n[nH]c2nc(Oc3ccc(F)cc3F)ncc12"
226 to 227 °C

Kindly indicate its recorded melting point. Item: "CCc1c(C(=O)C(N)=O)c2c(OCC(=O)O)cc3c(c2n1Cc1ccccc1)CCCC3"
222 to 225 °C

* * *

measured.parameter: melting point

Kindly indicate its recorded melting point. Item: "CC(C)C[C@H](CN)CC(=O)O"
192 to 196 °C

Kindly indicate its recorded melting point. Item: CN1CC(CCCl)Oc2ccc(Cl)cc2C1=O (stereo not given)
101 to 103 °C

Kindly indicate its recorded melting point. Item: "O=C(NCCO)c1cccc(-c2ccc3cnn(-c4ccc(Cl)cc4Cl)c3n2)c1"
169 to 170 °C

Kindly indicate its recorded melting point. Item: "O=S(=O)(NC[C@@H](CO)NC(c1ccccc1)(c1ccccc1)c1ccccc1)c1ccc(Oc2ccccc2)cc1"
67 to 70 °C

Kindly indicate its recorded melting point. Item: "CCNC(=O)Cc1ccc(C(=O)c2ccc(Cl)cc2)n1C"
187 to 188 °C

* * *

Field: melting point. Provide a value for each of the compounds that follow.

Kindly indicate its recorded melting point. Item: "Cn1c(=O)c(-c2ccc(Cl)cc2Cl)cc2c3cc(-c4nc(NS(C)(=O)=O)no4)ccc3n(C)c21"
263 to 266 °C

Kindly indicate its recorded melting point. Item: "CC(=O)Nc1ccc(-c2cc(-c3c(-c4cccc(C)n4)nc4ccccn34)ccn2)cc1"
257 °C

Kindly indicate its recorded melting point. Item: "CON=Cc1cc([N+](=O)[O-])c(Cl)cc1Cl"
129 to 132 °C

Kindly indicate its recorded melting point. Item: "COc1cc2c(cc1Br)-c1c(-c3cccs3)c3c(n1CC2)C(=O)N(C)C(C)(C)CC3"
173 to 175 °C

* * *

Field: melting point. Provide a value for each of the molecules that follow.

Kindly indicate its recorded melting point. Item: "CCOC(=O)C(C)(C)Oc1ccc(-c2ccc(CCNC(C)=O)cc2)cc1"
< 20 °C

Kindly indicate its recorded melting point. Item: "CS(=O)(=O)c1ccc(-c2cc(C(F)(F)F)nn2-c2ccc(O)cc2)cc1"
243 to 244 °C

Kindly indicate its recorded melting point. Item: "C1=C(c2ccc3ccccc3c2)CCN(Cc2c[nH]c3ncccc23)C1"
223 to 225 °C

Kindly indicate its recorded melting point. Item: "Cn1ccnc1Sc1ccc(Nc2c(C#N)cnc3cc(-c4ccc(CN5CCOCC5)cc4)ccc23)cc1Cl"
148 to 150 °C

Kindly indicate its recorded melting point. Item: "CCCCCc1cc2c(nc(O)n2CCCNC(=O)NC2CCCCC2)c(N)n1"
202 to 204 °C

Kindly indicate its recorded melting point. Item: "COC(=O)C(=Cc1ccc(F)c(Cl)c1)N=[N+]=[N-]"
72 to 74 °C

Kindly indicate its recorded melting point. Item: "N#Cc1c(O)nsc1S(=O)(=O)c1ccccc1"
163 to 164 °C

Kindly indicate its recorded melting point. Item: "Nc1ncnc2c1ncn2Cc1oc2ccccc2c(=O)c1-c1ccccc1"
173 to 175 °C

Kindly indicate its recorded melting point. Item: "CCCCCCCCOc1ccc(C(=O)Oc2ccc(-c3ccc(OC(=O)[C@H]4CCCO4)cc3)cc2)cc1"
73 °C

Kindly indicate its recorded melting point. Item: "COC(=O)c1cc(C(=O)c2ncc3ccccn23)ccc1NC(=O)c1ccccc1"
218 °C

Kindly indicate its recorded melting point. Item: "CCN1CSC(=Cc2cc(C(C)(C)C)c(O)c(C(C)(C)C)c2)C1=O"
169 to 172 °C

Kindly indicate its recorded melting point. Item: "ClC(Cl)(Cl)c1cc(-c2ccccc2)c2ccc3c(-c4ccccc4)cc(C(Cl)(Cl)Cl)nc3c2n1"
180 to 184 °C

Kindly indicate its recorded melting point. Item: "COC(=O)Cc1c(C(=O)OC)oc2ccccc2c1=O"
105 °C

Kindly indicate its recorded melting point. Item: "CCOc1cccc(C(C)=O)n1"
36 to 37 °C

Kindly indicate its recorded melting point. Item: "COc1cc(OCCN2CCN(C)CC2)ccc1/C=C/c1cc(/C=C/c2ccc3cc[nH]c3c2)n[nH]1"
134 to 142 °C

Kindly indicate its recorded melting point. Item: "Clc1cccc2c1Oc1ccccc1N=C2N1CCN2CCC[C@H]2C1"
150 to 151 °C
